assay.details: Skin and blood compound concentrations after topical application to FVB mice
experimental.parameters: FVB, mouse, blood, topical, 25 μg

- compound: "c1cc(-c2c[nH]c3nccc(N4CCC[C@@]5(CCCCN5)C4)c23)ncn1 [Example E117]"
  concentration at 2 h [nM]: 40

###

measured.target: ROCK1 (Homo sapiens (Human))
experimental.parameters: read-out: ROCK1 Average Ki; 1 μM ATP
property.measured: Ki

- compound: "CCN1CCCCC12CCCN(c1ccnc3[nH]cc(C#N)c13)C2 (centres unmarked)"
  test.result: "245 nM"
- compound: "c1ncc(-c2c[nH]c3nccc(N4CCC[C@H](N5CCOCC5)C4)c23)cn1"
  test.result: "1300 nM"
- compound: "c1ccc(-c2c[nH]c3nccc(N4CCC5(CCCN5)C4)c23)nc1 (centres unmarked)"
  test.result: "100000 nM"
- compound: "FC1CCN([C@H]2CCCN(c3ccnc4[nH]cc(-c5cncnc5)c34)C2)C1 (some centres unmarked)"
  test.result: "689 nM"
- compound: "Cc1cnc(-c2c[nH]c3nccc(N4CCCC5(CCCCN5)C4)c23)s1 (centres unmarked)"
  test.result: "100000 nM"

###

measured.target: kinase targets listed in tables 3 and 4 (Homo sapiens, UniProt Q9BXA7)
Sequence (Q9BXA7 whole entry, looked up): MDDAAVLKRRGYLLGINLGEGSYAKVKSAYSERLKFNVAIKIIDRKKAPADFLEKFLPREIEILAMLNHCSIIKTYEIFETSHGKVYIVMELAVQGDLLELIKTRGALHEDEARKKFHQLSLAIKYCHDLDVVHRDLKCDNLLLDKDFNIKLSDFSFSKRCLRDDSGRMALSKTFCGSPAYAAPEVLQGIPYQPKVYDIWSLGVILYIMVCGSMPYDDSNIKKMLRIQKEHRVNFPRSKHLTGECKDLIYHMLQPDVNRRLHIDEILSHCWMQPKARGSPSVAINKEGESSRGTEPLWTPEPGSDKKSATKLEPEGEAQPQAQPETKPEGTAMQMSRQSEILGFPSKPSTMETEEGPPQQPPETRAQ
pKi: −log10 of the molar value.

- molecule: "c1cc(-c2c[nH]c3nccc(N4CCC[C@@]5(CCCCN5)C4)c23)ncn1 [Example E117]"
  pKi: 6.87

###

measured.target: ROCK1 (Homo sapiens (Human), UniProt Q13464)
Sequence (Q13464 2-1354 limits assumed): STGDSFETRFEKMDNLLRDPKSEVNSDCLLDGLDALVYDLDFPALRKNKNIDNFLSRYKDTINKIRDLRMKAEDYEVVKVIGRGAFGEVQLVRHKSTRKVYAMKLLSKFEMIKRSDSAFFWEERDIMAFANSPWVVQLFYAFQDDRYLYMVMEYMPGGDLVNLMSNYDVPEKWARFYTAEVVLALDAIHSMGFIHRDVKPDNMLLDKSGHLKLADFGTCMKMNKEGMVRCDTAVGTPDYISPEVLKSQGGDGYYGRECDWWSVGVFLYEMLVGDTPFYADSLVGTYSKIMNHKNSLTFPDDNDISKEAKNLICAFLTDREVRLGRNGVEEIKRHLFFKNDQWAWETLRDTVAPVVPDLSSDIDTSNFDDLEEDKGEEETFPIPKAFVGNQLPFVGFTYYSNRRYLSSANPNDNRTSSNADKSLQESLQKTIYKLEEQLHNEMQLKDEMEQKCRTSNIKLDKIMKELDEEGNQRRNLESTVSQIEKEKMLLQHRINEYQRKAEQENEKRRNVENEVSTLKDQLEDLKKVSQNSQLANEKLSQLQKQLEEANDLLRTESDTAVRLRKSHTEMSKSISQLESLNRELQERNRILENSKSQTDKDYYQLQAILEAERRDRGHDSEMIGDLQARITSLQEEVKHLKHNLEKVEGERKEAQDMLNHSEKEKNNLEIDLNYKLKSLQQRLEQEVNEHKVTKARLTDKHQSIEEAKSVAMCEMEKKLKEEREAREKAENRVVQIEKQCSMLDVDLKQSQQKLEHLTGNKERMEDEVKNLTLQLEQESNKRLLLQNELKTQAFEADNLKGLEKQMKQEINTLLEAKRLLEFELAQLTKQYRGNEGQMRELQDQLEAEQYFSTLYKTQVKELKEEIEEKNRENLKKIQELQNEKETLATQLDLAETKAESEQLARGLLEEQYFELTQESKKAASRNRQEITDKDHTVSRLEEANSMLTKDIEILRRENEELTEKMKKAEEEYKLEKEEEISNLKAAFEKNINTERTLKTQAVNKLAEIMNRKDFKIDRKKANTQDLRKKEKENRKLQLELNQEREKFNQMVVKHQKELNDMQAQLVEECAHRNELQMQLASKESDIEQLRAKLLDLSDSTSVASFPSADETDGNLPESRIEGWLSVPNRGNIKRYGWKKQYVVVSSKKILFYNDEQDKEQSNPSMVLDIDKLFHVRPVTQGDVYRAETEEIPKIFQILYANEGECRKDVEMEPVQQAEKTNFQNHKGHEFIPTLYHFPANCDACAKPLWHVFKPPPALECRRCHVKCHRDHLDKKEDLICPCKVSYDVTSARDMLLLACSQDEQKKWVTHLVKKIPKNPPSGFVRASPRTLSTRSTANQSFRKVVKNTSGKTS
experimental.parameters: read-out: ROCK1 Average Ki; 1 μM ATP
# binning rule on Ki: small value: < 100 nM; mid value: ≥ 100 nM and < 500 nM; large value: ≥ 500 nM

- compound: "Nc1ccc(-c2c[nH]c3nccc(N4CCCCC4)c23)cn1"
  qualitative.label: "small value"
- compound: "CNC1CCN(c2ccnc3[nH]cc(-c4cncnc4)c23)CC1"
  qualitative.label: "mid value"
- compound: "c1ncc(-c2c[nH]c3nccc(O[C@@H]4CCCNC4)c23)cn1"
  qualitative.label: "mid value"
- compound: "CNC(=O)c1cncc(-c2c[nH]c3nccc(N4CCCCC4)c23)c1"
  qualitative.label: "large value"
- compound: "c1cnnc(-c2c[nH]c3nccc(N4CCCCC4)c23)c1"
  qualitative.label: "mid value"
- compound: "Cc1cnc2[nH]cc(-c3cncnc3)c2c1N1CCCCC1 [Example E1]"
  qualitative.label: "large value"
- compound: "c1cc(-c2c[nH]c3nccc(N4CCCCC4)c23)[nH]n1"
  qualitative.label: "small value"
- compound: "CN1CCCN(c2ccnc3[nH]cc(-c4cncnc4)c23)CC1"
  qualitative.label: "mid value"
- compound: "CCN[C@H]1CCCN(c2ccnc3[nH]cc(-c4cnn(C)c4)c23)C1"
  qualitative.label: "mid value"
- compound: "CN(C)[C@H]1CCCN(c2ccnc3[nH]cc(-c4cncnc4)c23)C1"
  qualitative.label: "large value"
- compound: "Cn1cc(-c2c[nH]c3nccc(N4CCC[C@](N)(N5CCC(N)CC5)C4)c23)cn1"
  qualitative.label: "large value"
- compound: "c1ncc(-c2c[nH]c3nccc(N4CCCC5(CCCN5)C4)c23)cn1 (stereo not shown)"
  qualitative.label: "mid value"
- compound: "c1ccc2c(-c3c[nH]c4nccc(N5CCCCC5)c34)n[nH]c2c1"
  qualitative.label: "large value"
- compound: "NC1CCCN(c2ccnc3[nH]cc(-c4cncnc4)c23)C1 (stereo not shown)"
  qualitative.label: "mid value"
- compound: "c1cncc(-c2c[nH]c3nccc(N4CCC4)c23)c1"
  qualitative.label: "large value"
- compound: "c1ncc(-c2c[nH]c3nccc(OC4CCCNCC4)c23)cn1 (stereo not shown)"
  qualitative.label: "small value"
- compound: "NC1CN(c2ccnc3[nH]cc(-c4ccncn4)c23)CCC1F (stereo not shown)"
  qualitative.label: "small value"
- compound: "N#Cc1cncc(-c2c[nH]c3nccc(N4CCCCC4)c23)c1"
  qualitative.label: "large value"

###

Here, each record is paired with measured pKi data.
measured.target: ROCK1 (Homo sapiens (Human))
experimental.parameters: read-out: ROCK1 Average Ki; 1 μM ATP
pKi: −log10 of the molar value.

- compound: "c1csc(-c2c[nH]c3nccc(N4CC[C@]5(CCCN5)C4)c23)n1"
  pKi: 4.00
- compound: "NCC1CCCN(c2ccnc3[nH]cc(-c4cncnc4)c23)C1 (stereo not drawn)"
  pKi: 8.09
- compound: "C[C@H]1CCCN1c1ccnc2[nH]cc(C#N)c12"
  pKi: 7.07
- compound: "CN[C@H]1CCCN(c2ccnc3[nH]cc(-c4cncnc4)c23)C1"
  pKi: 4.29
- compound: "NCC1CCN(c2ccnc3[nH]cc(-c4cncnc4)c23)CC1"
  pKi: 8.00
- compound: "c1ccc(-c2c[nH]c3nccc(N4CCCCC4)c23)nc1"
  pKi: 5.77
- compound: "c1ncc(-c2c[nH]c3nccc(N4CCC[C@]5(CCCCN5)C4)c23)cn1"
  pKi: 4.30
- compound: "c1cc(-c2c[nH]c3nccc(N4CCC5(CCCCN5)C4)c23)cnn1 (stereo not drawn)"
  pKi: 7.77
- compound: "c1ncc(-c2c[nH]c3nccc(OC4CCNCC4)c23)cn1"
  pKi: 6.81

###

assay.details: Skin and blood compound concentrations after topical application to FVB mice
experimental.parameters: FVB, mouse, skin, topical, 25 μg

- compound: "c1cc(-c2c[nH]c3nccc(N4CCC[C@@]5(CCCCN5)C4)c23)ncn1 [Example E117]"
  concentration at 2 h [µM]: 26

###

measured.target: MRCKβ (Homo sapiens (Human))
assay.details: MRCKβ kinase assay (IMAP fluorescence polarization)
Assay type: biochemical
experimental.parameters: 1 μM ATP; read-out: MRCK-B Average Ki
pKi: −log10 of the molar value.
Binary classification by pKi, with 8 as an inclusive lower bound for label 1; all other cases are label 0.

- compound: "c1cc(N2CCC2)c2c(-c3cc[nH]n3)c[nH]c2n1 [Example E28]"
  qualitative.label: "label 0"
- compound: "CN1CCN(c2ccnc3[nH]cc(C#N)c23)CC1 [Example E32]"
  qualitative.label: "label 0"
- compound: "c1cncc(-c2c[nH]c3nccc(N4CCC4)c23)c1 [Example E26]"
  qualitative.label: "label 0"
- compound: "Fc1ccc(-c2c[nH]c3nccc(N4CCCC5(CCCCN5)C4)c23)nc1 (stereo not drawn) [Example E170]"
  qualitative.label: "label 1"

###

measured.target: ROCK2 (Homo sapiens (Human), UniProt O75116)
Sequence (O75116 whole entry): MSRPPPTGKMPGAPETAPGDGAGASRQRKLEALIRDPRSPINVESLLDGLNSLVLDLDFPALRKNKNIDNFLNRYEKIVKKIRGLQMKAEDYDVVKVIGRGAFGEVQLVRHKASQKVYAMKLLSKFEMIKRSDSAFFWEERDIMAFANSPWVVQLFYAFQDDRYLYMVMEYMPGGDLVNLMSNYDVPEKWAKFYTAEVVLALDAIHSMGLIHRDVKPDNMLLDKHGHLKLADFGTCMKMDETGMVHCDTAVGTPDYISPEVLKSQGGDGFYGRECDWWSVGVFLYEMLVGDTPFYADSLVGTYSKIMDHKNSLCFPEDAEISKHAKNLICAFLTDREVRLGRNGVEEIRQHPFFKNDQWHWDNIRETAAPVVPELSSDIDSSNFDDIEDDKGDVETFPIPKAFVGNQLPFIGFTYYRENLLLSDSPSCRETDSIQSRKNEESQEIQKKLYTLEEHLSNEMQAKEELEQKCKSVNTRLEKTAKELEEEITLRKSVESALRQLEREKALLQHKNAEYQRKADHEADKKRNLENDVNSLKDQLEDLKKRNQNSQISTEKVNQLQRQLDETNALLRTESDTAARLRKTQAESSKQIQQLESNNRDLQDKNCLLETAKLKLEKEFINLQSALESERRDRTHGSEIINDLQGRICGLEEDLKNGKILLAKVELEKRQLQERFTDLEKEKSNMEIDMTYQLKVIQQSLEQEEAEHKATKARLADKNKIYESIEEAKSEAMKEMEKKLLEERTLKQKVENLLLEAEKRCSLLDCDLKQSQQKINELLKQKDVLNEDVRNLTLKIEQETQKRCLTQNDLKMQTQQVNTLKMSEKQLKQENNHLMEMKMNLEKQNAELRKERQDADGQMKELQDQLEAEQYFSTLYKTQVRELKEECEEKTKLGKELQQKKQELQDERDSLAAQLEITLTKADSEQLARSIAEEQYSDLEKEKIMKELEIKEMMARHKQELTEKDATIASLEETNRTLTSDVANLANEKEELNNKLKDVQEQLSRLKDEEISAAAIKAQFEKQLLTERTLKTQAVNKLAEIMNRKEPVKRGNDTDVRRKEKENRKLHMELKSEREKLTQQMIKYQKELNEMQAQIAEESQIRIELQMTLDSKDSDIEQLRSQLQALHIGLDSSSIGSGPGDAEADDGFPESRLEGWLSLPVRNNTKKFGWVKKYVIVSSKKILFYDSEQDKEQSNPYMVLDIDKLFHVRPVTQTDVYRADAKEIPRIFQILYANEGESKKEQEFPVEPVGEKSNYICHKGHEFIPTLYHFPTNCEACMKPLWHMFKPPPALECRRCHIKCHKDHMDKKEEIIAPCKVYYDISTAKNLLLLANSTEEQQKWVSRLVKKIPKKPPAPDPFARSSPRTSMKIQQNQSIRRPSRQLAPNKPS
assay.details: ROCK2 kinase assay (IMAP fluorescence polarization)
Format: biochemical
experimental.parameters: 1 μM ATP; read-out: ROCK2 Average Ki
property.measured: Ki (µM)

- molecule: "CN[C@H]1CCCN(c2ccnc3[nH]cc(-c4cncnc4)c23)[C@H]1C (relative stereo)"
  property.measured: "Ki"
  test.result: 1.09
- molecule: "N#Cc1c[nH]c2nccc(N3CCCC(c4ccccc4)C3)c12 (stereo not shown)"
  property.measured: "Ki"
  test.result: 0.728
- molecule: "CN1CCN(C(=O)[C@@H]2CCCN2c2ccnc3[nH]cc(C#N)c23)CC1"
  property.measured: "Ki"
  test.result: 0.762
- molecule: "N#Cc1c[nH]c2nccc(N3CCCCC3)c12"
  property.measured: "Ki"
  test.result: 0.016
- molecule: "Fc1ccc(-c2c[nH]c3nccc(N4CCCC5(CCCCN5)C4)c23)nc1 (stereo not shown)"
  property.measured: "Ki"
  test.result: 0.165
- molecule: "CC(C)N[C@H]1CCCN(c2ccnc3[nH]cc(-c4cncnc4)c23)C1"
  property.measured: "Ki"
  test.result: 16.8
- molecule: "CN1CC[C@H](COc2ccnc3[nH]cc(-c4cncnc4)c23)C1"
  property.measured: "Ki"
  test.result: 0.14
- molecule: "FC1CCN([C@H]2CCCN(c3ccnc4[nH]cc(-c5cncnc5)c34)C2)CC1"
  property.measured: "Ki"
  test.result: 0.495
- molecule: "c1csc(-c2c[nH]c3nccc(N4CCC[C@@]5(CCCCN5)C4)c23)n1"
  property.measured: "Ki"
  test.result: 0.0217
- molecule: "CCn1cc(-c2c[nH]c3nccc(N4CCCCC4)c23)cn1"
  property.measured: "Ki"
  test.result: 0.0679
- molecule: "CN1CCCN(C(=O)[C@@H]2CCCN2c2ccnc3[nH]cc(C#N)c23)CC1"
  property.measured: "Ki"
  test.result: 0.703
- molecule: "c1cc(N2CCCC3(CCCCN3)C2)c2c(-c3ncsn3)c[nH]c2n1 (stereo not shown)"
  property.measured: "Ki"
  test.result: 0.105
- molecule: "N#Cc1cc(-c2c[nH]c3nccc(N4CCCCC4)c23)cnc1N"
  property.measured: "Ki"
  test.result: 0.245
- molecule: "COCCN[C@H]1CCCN(c2ccnc3[nH]cc(-c4cncnc4)c23)C1"
  property.measured: "Ki"
  test.result: 0.964
- molecule: "CNc1ccnc2[nH]cc(C#N)c12"
  property.measured: "Ki"
  test.result: 0.0303
- molecule: "Fc1cccnc1-c1c[nH]c2nccc(N3CCCC4(CCCCN4)C3)c12 (stereo not shown)"
  property.measured: "Ki"
  test.result: 0.261
- molecule: "c1ncc(-c2c[nH]c3nccc(N4CCC[C@H](N5CCCCC5)C4)c23)cn1"
  property.measured: "Ki"
  test.result: 0.979
- molecule: "c1ncc(-c2c[nH]c3nccc(NCC4CCNCC4)c23)cn1"
  property.measured: "Ki"
  test.result: 0.0512
- molecule: "N[C@H]1CCN(c2ccnc3[nH]cc(-c4cncnc4)c23)C1"
  property.measured: "Ki"
  test.result: 0.0858
- molecule: "c1ncc(-c2c[nH]c3nccc(N4CCC[C@@]5(CCCCN5)C4)c23)cn1"
  property.measured: "Ki"
  test.result: 0.0777
- molecule: "CN[C@H]1CCCN(c2ccnc3[nH]cc(-c4nccs4)c23)C1"
  property.measured: "Ki"
  test.result: 0.103
- molecule: "Nc1ccc(-c2c[nH]c3nccc(N4CCCCC4)c23)cn1"
  property.measured: "Ki"
  test.result: 0.0457
- molecule: "CNC1CCCN(c2ccnc3[nH]cc(-c4cncnc4)c23)C1 (stereo not shown)"
  property.measured: "Ki"
  test.result: 0.314
- molecule: "c1ncc(-c2c[nH]c3nccc(NC4CCNCC4)c23)cn1"
  property.measured: "Ki"
  test.result: 0.0927
- molecule: "CN1CCC[C@@H](COc2ccnc3[nH]cc(-c4cncnc4)c23)C1"
  property.measured: "Ki"
  test.result: 0.102
- molecule: "CN[C@H]1CCCN(c2ccnc3[nH]cc(-c4cncc(F)c4)c23)C1"
  property.measured: "Ki"
  test.result: 0.578
- molecule: "Cc1cnc(-c2c[nH]c3nccc(N4CC[C@@]5(CCCCN5)C4)c23)s1"
  property.measured: "Ki"
  test.result: 0.0248
- molecule: "CN[C@@H]1CCCN(c2ccnc3[nH]cc(-c4cncnc4)c23)C1"
  property.measured: "Ki"
  test.result: 0.248
- molecule: "Nc1cccc(-c2c[nH]c3nccc(N4CCCCC4)c23)n1"
  property.measured: "Ki"
  test.result: 0.0138
- molecule: "Clc1cncc(-c2c[nH]c3nccc(N4CCCCC4)c23)c1"
  property.measured: "Ki"
  test.result: 0.575
- molecule: "N#Cc1c[nH]c2nccc(N3CCCC3)c12"
  property.measured: "Ki"
  test.result: 0.0658
- molecule: "N[C@H]1CCCN(c2ccnc3[nH]cc(-c4cncnc4)c23)C1"
  property.measured: "Ki"
  test.result: 0.274
- molecule: "CN1CCC[C@H](COc2ccnc3[nH]cc(-c4cncnc4)c23)C1"
  property.measured: "Ki"
  test.result: 0.111
- molecule: "c1cc(N2CCC2)c2c(-c3cn[nH]c3)c[nH]c2n1"
  property.measured: "Ki"
  test.result: 0.381
- molecule: "CCN1CCCCC12CCCN(c1ccnc3[nH]cc(-c4nccs4)c13)C2 (stereo not shown)"
  property.measured: "Ki"
  test.result: 0.0299
- molecule: "c1cc(-c2c[nH]c3nccc(N4CCCCC4)c23)ncn1"
  property.measured: "Ki"
  test.result: 0.0197
- molecule: "c1cnc(-c2c[nH]c3nccc(N4CCCCC4)c23)cn1"
  property.measured: "Ki"
  test.result: 0.159
